System: MOLT-4 leukemia
assay_text: NCI tumour cell line growth inhibition, 48 h
quantity_kind: TGI

Record excerpt, results attached:
compound | TGI
O=c1n(CCO)nc2n1CCCN2 | > 100 µM
O=C(C(=O)n1ccc2ccccc21)c1c[nH]c2ccccc12 | > 10 µM
CCc1cccc(C(C)C)c1C1C(=O)C(=O)N(c2nc3ccccc3s2)C(=O)C1=O | > 100 µM

Kindly give each listed record's TGI.
1. Oc1ccc(-c2nc(-c3ccc4oc5ccc(-c6[nH]c(-c7ccc(O)cc7)nc6-c6ccccc6)cc5c4c3)c(-c3ccccc3)[nH]2)cc1
2. CC(C)OP(=O)(OC(C)C)c1ncn(-c2ccc([N+](=O)[O-])cc2)n1

7.09 µM
> 100 µM

Kindly give each listed record's TGI.
1. CCN1CCc2sc3[nH]c(=S)n(C)c(=O)c3c2C1
2. Cc1cn2cc(-c3ccncc3)nc2s1
3. COC(=O)C(I(OS(=O)(=O)c1ccc(C)cc1)c1ccccc1)=P(c1ccccc1)(c1ccccc1)c1ccccc1
4. CCOC(=O)C1(C/C=C\CBr)CCCCCCC1=O (stereo not drawn)
5. C=CC(=O)N1CC[C@@H](Oc2nc(Nc3ccc(N4CCC(N5CCN(C)CC5)CC4)cc3)c(C(N)=O)nc2CC)C1
6. COc1cc2c(cc1C)NC(=O)/C2=C/c1c(Cl)n(C)c2ccccc12

1. > 100 µM
2. > 100 µM
3. 84.4 µM
4. > 100 µM
5. > 100 µM
6. 72.7 µM

Kindly give each listed record's TGI.
1. COc1cc(C2C3=C(COC3=O)N(CCO)c3cc4c(cc32)CCC4)cc(OC)c1OC (stereo not drawn)
2. CCOc1c(OC)cc(CNNc2nccs2)cc1OC

1. > 32.5 µM
2. > 100 µM
